These entries and their values trace back to ChEMBL document CHEMBL1139342.

test system: Enterococcus faecalis; assay: Antibacterial activity against Enterococcus faecalis ATCC 29212 at 30 nmol after 16 to 20 hrs; assay type: functional

chem_smiles	inhibition zone (IZ) (mm2)
CSCC[C@H](N)C(=O)NS(=O)(=O)OC[C@H]1O[C@@H](n2cnc3c(N)ncnc32)[C@H](O)[C@@H]1O	0
CSCC[C@H](NC(=O)[C@@H](N)CCSC)C(=O)NS(=O)(=O)OC[C@H]1O[C@@H](n2cnc3c(N)ncnc32)[C@H](O)[C@@H]1O	83.9
CSCC[C@H](NC(=O)[C@H](C)N)C(=O)NS(=O)(=O)OC[C@H]1O[C@@H](n2cnc3c(N)ncnc32)[C@H](O)[C@@H]1O	0
CSCC[C@H](N)C(=O)N[C@@H](CC(=O)O)C(=O)NS(=O)(=O)OC[C@H]1O[C@@H](n2cnc3c(N)ncnc32)[C@H](O)[C@@H]1O	63.7
C[C@H](N)C(=O)N[C@@H](C)C(=O)NS(=O)(=O)OC[C@H]1O[C@@H](n2cnc3c(N)ncnc32)[C@H](O)[C@@H]1O	56.9
Nc1ncnc2c1ncn2[C@@H]1O[C@H](COS(=O)(=O)NC(=O)[C@@H](N)CC(=O)O)[C@@H](O)[C@H]1O	21.3
CC(C)C[C@H](NC(=O)[C@@H]1CCCN1)C(=O)NS(=O)(=O)OC[C@H]1O[C@@H](n2cnc3c(N)ncnc32)[C@H](O)[C@@H]1O	0

* * *

Let's look at some molecules and their measured inhibition zone (IZ).
test system: Enterococcus faecalis; experiment: Antibacterial activity against Enterococcus faecalis ATCC 29212 at 30 nmol after 16 to 20 hrs; type: functional
experimental_endpoint: inhibition zone (IZ) (mm2)

chem_smiles	experimental_target	experimental_endpoint	unit_of_measurement	recorded_measurement
C[C@H](NC(=O)[C@@H]1CCCN1)C(=O)NS(=O)(=O)OC[C@H]1O[C@@H](n2cnc3c(N)ncnc32)[C@H](O)[C@@H]1O	Enterococcus faecalis	inhibition zone (IZ)	mm2	0
Nc1ncnc2c1ncn2[C@@H]1O[C@H](COS(=O)(=O)NC(=O)[C@@H](N)Cc2c[nH]c3ccccc23)[C@@H](O)[C@H]1O	Enterococcus faecalis	inhibition zone (IZ)	mm2	0
C[C@H](N)C(=O)N[C@@H](Cc1c[nH]c2ccccc12)C(=O)NS(=O)(=O)OC[C@H]1O[C@@H](n2cnc3c(N)ncnc32)[C@H](O)[C@@H]1O	Enterococcus faecalis	inhibition zone (IZ)	mm2	0
CSCC[C@H](N)C(=O)N[C@@H](C)C(=O)NS(=O)(=O)OC[C@H]1O[C@@H](n2cnc3c(N)ncnc32)[C@H](O)[C@@H]1O	Enterococcus faecalis	inhibition zone (IZ)	mm2	76.1
CC(C)C[C@H](NC(=O)[C@@H](N)CCCCN)C(=O)NS(=O)(=O)OC[C@H]1O[C@@H](n2cnc3c(N)ncnc32)[C@H](O)[C@@H]1O	Enterococcus faecalis	inhibition zone (IZ)	mm2	0
CSCC[C@H](NC(=O)[C@@H]1CCCN1)C(=O)NS(=O)(=O)OC[C@H]1O[C@@H](n2cnc3c(N)ncnc32)[C@H](O)[C@@H]1O	Enterococcus faecalis	inhibition zone (IZ)	mm2	0

* * *

tested on: Staphylococcus aureus; assay: Antibacterial activity against Staphylococcus aureus ATCC 25923 at 30 nmol after 16 to 20 hrs; assay type: functional
Let's look at some compounds and their measured inhibition zone (IZ).

chem_smiles	inhibition zone (IZ)
Nc1ncnc2c1ncn2[C@@H]1O[C@H](COS(=O)(=O)NC(=O)[C@H](Cc2c[nH]c3ccccc23)NC(=O)[C@@H]2CCCN2)[C@@H](O)[C@H]1O	0 mm2
CSCC[C@H](N)C(=O)NS(=O)(=O)OC[C@H]1O[C@@H](n2cnc3c(N)ncnc32)[C@H](O)[C@@H]1O	18.7 mm2
CSCC[C@H](N)C(=O)N[C@@H](CC(C)C)C(=O)NS(=O)(=O)OC[C@H]1O[C@@H](n2cnc3c(N)ncnc32)[C@H](O)[C@@H]1O	0 mm2
CSCC[C@H](N)C(=O)N[C@@H](C)C(=O)NS(=O)(=O)OC[C@H]1O[C@@H](n2cnc3c(N)ncnc32)[C@H](O)[C@@H]1O	59 mm2
CC(C)C[C@H](NC(=O)[C@H](C)N)C(=O)NS(=O)(=O)OC[C@H]1O[C@@H](n2cnc3c(N)ncnc32)[C@H](O)[C@@H]1O	0 mm2
NCCCC[C@H](N)C(=O)N[C@@H](Cc1c[nH]c2ccccc12)C(=O)NS(=O)(=O)OC[C@H]1O[C@@H](n2cnc3c(N)ncnc32)[C@H](O)[C@@H]1O	0 mm2

* * *

test system: Enterococcus faecalis; experiment: Antibacterial activity against Enterococcus faecalis ATCC 29212 at 30 nmol after 16 to 20 hrs; type: functional

chem_smiles	unit_of_measurement	inhibition zone (IZ)
CC(C)C[C@H](NC(=O)[C@@H](N)CCC(=O)O)C(=O)NS(=O)(=O)OC[C@H]1O[C@@H](n2cnc3c(N)ncnc32)[C@H](O)[C@@H]1O	mm2	0
C[C@H](N)C(=O)NS(=O)(=O)OC[C@H]1O[C@@H](n2cnc3c(N)ncnc32)[C@H](O)[C@@H]1O	mm2	44.7
CC(C)C[C@H](N)C(=O)NS(=O)(=O)OC[C@H]1O[C@@H](n2cnc3c(N)ncnc32)[C@H](O)[C@@H]1O	mm2	26.9
Nc1ncnc2c1ncn2[C@@H]1O[C@H](COS(=O)(=O)NC(=O)[C@H](Cc2c[nH]c3ccccc23)NC(=O)[C@@H]2CCCN2)[C@@H](O)[C@H]1O	mm2	0
Nc1ncnc2c1ncn2[C@@H]1O[C@H](COS(=O)(=O)NC(=O)[C@H](Cc2ccccc2)NC(=O)[C@@H](N)Cc2ccccc2)[C@@H](O)[C@H]1O	mm2	26.8
CC(C)C[C@H](NC(=O)[C@H](C)N)C(=O)NS(=O)(=O)OC[C@H]1O[C@@H](n2cnc3c(N)ncnc32)[C@H](O)[C@@H]1O	mm2	24.2
NCCCC[C@H](N)C(=O)N[C@@H](Cc1c[nH]c2ccccc12)C(=O)NS(=O)(=O)OC[C@H]1O[C@@H](n2cnc3c(N)ncnc32)[C@H](O)[C@@H]1O	mm2	0
Nc1ncnc2c1ncn2[C@@H]1O[C@H](COS(=O)(=O)NC(=O)[C@@H](N)Cc2ccccc2)[C@@H](O)[C@H]1O	mm2	40.4
C/C(=C\C(=O)OCCCCCCCCC(=O)O)C[C@@H]1OC[C@H](C[C@@H]2O[C@H]2[C@@H](C)[C@H](C)O)[C@@H](O)[C@H]1O	mm2	89.4
CSCC[C@H](N)C(=O)N[C@@H](Cc1c[nH]c2ccccc12)C(=O)NS(=O)(=O)OC[C@H]1O[C@@H](n2cnc3c(N)ncnc32)[C@H](O)[C@@H]1O	mm2	0
CSCC[C@H](N)C(=O)N[C@@H](CC(C)C)C(=O)NS(=O)(=O)OC[C@H]1O[C@@H](n2cnc3c(N)ncnc32)[C@H](O)[C@@H]1O	mm2	33.3

* * *

system: Staphylococcus aureus; assay: Antibacterial activity against Staphylococcus aureus ATCC 25923 at 30 nmol after 16 to 20 hrs; assay type: functional

compound	inhibition zone (IZ)
C[C@H](N)C(=O)NS(=O)(=O)OC[C@H]1O[C@@H](n2cnc3c(N)ncnc32)[C@H](O)[C@@H]1O [ALASA]	35 mm2
Nc1ncnc2c1ncn2[C@@H]1O[C@H](COS(=O)(=O)NC(=O)[C@@H](N)Cc2ccccc2)[C@@H](O)[C@H]1O [PHESA]	0 mm2
CSCC[C@H](NC(=O)[C@H](C)N)C(=O)NS(=O)(=O)OC[C@H]1O[C@@H](n2cnc3c(N)ncnc32)[C@H](O)[C@@H]1O	0 mm2
CC(C)C[C@H](NC(=O)[C@@H](N)CCC(=O)O)C(=O)NS(=O)(=O)OC[C@H]1O[C@@H](n2cnc3c(N)ncnc32)[C@H](O)[C@@H]1O	0 mm2
CC(C)C[C@H](N)C(=O)NS(=O)(=O)OC[C@H]1O[C@@H](n2cnc3c(N)ncnc32)[C@H](O)[C@@H]1O [LEUSA]	0 mm2
C/C(=C\C(=O)OCCCCCCCCC(=O)O)C[C@@H]1OC[C@H](C[C@@H]2O[C@H]2[C@@H](C)[C@H](C)O)[C@@H](O)[C@H]1O [MUPIROCIN]	>490.93 mm2
